test: HILIC, Merck SeQuant ZIC-pHILIC, 150 × 2.1 mm, 5 µm, 40 °C, 0.3 mL/min, estimated dead time 1.1 min; A: acetonitrile; B: water + 2.8 mM ammonium formate, pH 9; gradient (min/%B) 0/5 1/5 10/51 13/51 13.1/5 20/5; conditions: stereoisomer not certain
readoutKind: LC retention time (min)
Give bare numbers, in min.

Example entries begin here.
>>> recordednumber("Nc1ncnc2c1ncn2C1OC(COP(=O)(O)OP(=O)(O)OCC2OC(O)C(O)C2O)C(O)C1O (stereo not given) [ADENOSINE DIPHOSPHATE RIBOSE]")
9.14
>>> recordednumber("Nc1ncnc2c1ncn2C1OC(COP(=O)(O)OP(=O)(O)O)C(O)C1O (stereo not given) [ADENOSINE 5'-DIPHOSPHATE]")
9.46
>>> recordednumber("Oc1ccc(O)cc1 [HYDROQUINONE]")
6.29

List reported LC retention time for each of these compounds:
1. COC1OC(CO)C(O)C(O)C1O (stereo not given) [METHYL GALACTOSIDE]
2. NC(=O)c1ncn(C2OC(COP(=O)(O)O)C(O)C2O)c1N (stereo not given)

6.42
8.82
